For each entry below, report its IC50 value.
target_system: EGFR L858R (Homo sapiens, UniProt P00533, L858R)
Construct: purchased SignalChem E10-122BG
Sequence (P00533 25-1210 L858R): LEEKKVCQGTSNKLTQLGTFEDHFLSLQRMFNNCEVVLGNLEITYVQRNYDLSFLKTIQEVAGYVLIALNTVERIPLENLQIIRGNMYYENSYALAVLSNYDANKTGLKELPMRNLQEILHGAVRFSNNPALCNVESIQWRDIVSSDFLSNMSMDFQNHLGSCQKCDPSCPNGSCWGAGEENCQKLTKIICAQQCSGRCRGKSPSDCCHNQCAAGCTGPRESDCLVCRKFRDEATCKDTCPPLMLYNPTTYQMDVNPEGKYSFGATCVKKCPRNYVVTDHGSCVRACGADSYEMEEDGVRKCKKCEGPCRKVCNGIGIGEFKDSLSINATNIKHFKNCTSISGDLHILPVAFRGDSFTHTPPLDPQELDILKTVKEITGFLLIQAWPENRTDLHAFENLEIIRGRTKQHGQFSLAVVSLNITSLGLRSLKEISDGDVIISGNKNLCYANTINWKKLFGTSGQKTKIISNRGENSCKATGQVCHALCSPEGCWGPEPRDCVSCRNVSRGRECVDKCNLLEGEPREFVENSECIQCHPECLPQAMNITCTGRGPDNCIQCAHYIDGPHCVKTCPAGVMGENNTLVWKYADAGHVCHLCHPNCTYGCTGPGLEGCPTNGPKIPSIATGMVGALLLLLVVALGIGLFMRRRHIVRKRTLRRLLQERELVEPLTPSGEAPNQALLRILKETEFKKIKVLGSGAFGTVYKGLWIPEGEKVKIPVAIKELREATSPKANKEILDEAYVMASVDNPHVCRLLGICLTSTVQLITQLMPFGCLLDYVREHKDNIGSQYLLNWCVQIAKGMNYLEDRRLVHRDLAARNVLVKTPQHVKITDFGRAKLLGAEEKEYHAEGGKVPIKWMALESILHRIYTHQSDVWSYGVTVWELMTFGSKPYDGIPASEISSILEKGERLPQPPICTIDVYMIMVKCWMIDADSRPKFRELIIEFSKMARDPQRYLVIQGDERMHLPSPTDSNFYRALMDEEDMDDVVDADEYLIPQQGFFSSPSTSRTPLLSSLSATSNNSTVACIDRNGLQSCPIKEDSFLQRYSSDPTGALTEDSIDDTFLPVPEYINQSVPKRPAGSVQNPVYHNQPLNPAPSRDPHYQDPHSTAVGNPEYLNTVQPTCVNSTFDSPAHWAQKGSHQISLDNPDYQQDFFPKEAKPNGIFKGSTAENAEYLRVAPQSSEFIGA
assay_name: Biochemical EGFR inhibition assay (Caliper mobility shift), EGFR L858R
condition_details: read-out: Enz EGFR_L858R IC50

// solved cases for IC50 follow
{"molecule": "C[C@@H](Oc1cc(-c2cnn(CC(C)(C)O)c2)cc2ncnc(Nc3ccc4ncccc4c3F)c12)C1COC1", "IC50": "< 10 nM"}
{"molecule": "CC(=O)N1C2CC1CN(c1cc(O[C@H](C)CN(C)C)c3c(Nc4ccc5ncccc5c4F)ncnc3c1)C2", "IC50": "> 50.1 nM"}
{"molecule": "C[C@H](CN(C)C)Oc1cc(N2CCOC(C(F)F)C2)cc2ncnc(Nc3ccc4ncccc4c3F)c12 (mixture of isomers)", "IC50": "10.1 to 50 nM"}
{"molecule": "CC[C@H](CN(C)C)Oc1cc(-c2cnn(C)c2)cc2ncnc(Nc3ccc4ncccc4c3F)c12", "IC50": "< 10 nM"}
{"molecule": "C[C@H](CN(C)C)Oc1cc(-c2cnn(C)c2)cc2ncnc(Nc3ccc4nnccc4c3)c12", "IC50": "> 50.1 nM"}

Could you report IC50 for every entry in the following list?
1. CC(CN(C)C)Oc1cc(-c2cnn(C)c2)cc2ncnc(Nc3ccc4ncccc4c3)c12 (racemic)
2. C[C@H](CN(C)C)Oc1cc(-c2cnn(C)c2)cc2ncnc(Nc3cnc4ccccc4c3F)c12
3. COc1nn(C)cc1-c1cc(O[C@H](C)CN(C)C)c2c(Nc3ccc4ncccc4c3F)ncnc2c1

stdout:
["< 10 nM", "< 10 nM", "< 10 nM"]

Dear colleague, could you send me IC50 for each of the items below? Thanks.
1. COc1cc(O[C@H](C)CN(C)C)c2c(Nc3ccc4ncccc4c3F)ncnc2c1
2. C[C@@H](Oc1cc(N2CC3(COC3)C2)cc2ncnc(Nc3ccc4ncccc4c3F)c12)C1COC1

stdout:
10.1 to 50 nM
< 10 nM

State recorded IC50 for all listed molecules.
1. C[C@H](CN(C)C)Oc1cc(-c2cn(C)nc2OC(F)F)cc2ncnc(Nc3ccc4ncccc4c3F)c12
2. C[C@H](CN(C)C)Oc1cc(N2CC[C@H](C(C)(C)O)C2)cc2ncnc(Nc3c(F)cc4ncccc4c3F)c12

stdout:
1: < 10 nM; 2: < 10 nM

Go through the list and state IC50 for each entry.
1. C[C@@H](Oc1cc(N2CCC(N(C)C)CC2)cc2ncnc(Nc3ccc4ncccc4c3F)c12)C1COC1
2. CNC[C@@H](C)Oc1cc(-c2cnn(C)c2)cc2ncnc(Nc3ccc4ncccc4c3F)c12
3. C[C@@H](Oc1cc(N2CC[C@H](N(C)C)C2)cc2ncnc(Nc3ccc4ncccc4c3F)c12)C1COC1
4. C[C@H](CN(C)C)Oc1cc(N2CC3(COC3)C2)cc2ncnc(Nc3c(F)cc4ncccc4c3F)c12

stdout:
1: < 10 nM; 2: 10.1 to 50 nM; 3: < 10 nM; 4: < 10 nM

Provide reported IC50 for each item, in the same order as listed.
1. C[C@H](CN(C)C)Oc1cc(-c2cnn(C)c2)cc2ncnc(Nc3ccc4ncc(O)cc4c3F)c12
2. [2H]c1c(-c2cnn(C)c2)cc(O[C@H](C)CN(C)C)c2c(Nc3ccc4ncccc4c3F)ncnc12
3. C[C@H](CN(C)C)Oc1cc(-c2cnn(C)c2)cc2ncnc(Nc3ccc4ncccc4c3F)c12
4. CN1CCC[C@@H](Oc2cc(-c3cnn(C)c3)cc3ncnc(Nc4ccc5ncccc5c4F)c23)C1

stdout:
["< 10 nM", "< 10 nM", "< 10 nM", "10.1 to 50 nM"]

// provenance: patent US12662465B2
